# target_under_test: AsPC-1 HiBiT-KRASG12D (Homo sapiens, UniProt P01116, G12D)
# Construct: insert the HiBiT tag onto the N-terminus of one or more of the endogenous KRAS alleles; endogenous in cells; host or cells: AsPC-1 (ATCC CRL-1682), CRISPR-Cas9 knock-in clone, one tagged allele
# Sequence (P01116 1-188 isoform P01116-2 G12D): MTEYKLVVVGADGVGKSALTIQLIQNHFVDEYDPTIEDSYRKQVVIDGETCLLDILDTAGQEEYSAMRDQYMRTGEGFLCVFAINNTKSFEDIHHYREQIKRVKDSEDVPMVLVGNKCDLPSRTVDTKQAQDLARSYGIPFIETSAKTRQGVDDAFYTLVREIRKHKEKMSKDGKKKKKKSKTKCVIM
# assay_text: HiBiT degradation assay (G12D), AsPC-1 HiBiT-KRASG12D cells
# Format: cell-based
# experimental_parameters: ASPC1, AsPC-1 HiBiT-KRASG12D cells, 24 hours treatment, maximum degradation observed
quantity_measured: Dmax

I would be grateful if you could share the reported Dmax for C#Cc1c(F)ccc2cc(O)cc(-c3ncc4c(N5CC6CCC(C5)N6)nc(OC[C@@]56CCCN5[C@H](COc5cc([C@H](C(=O)N7C[C@H](O)C[C@H]7C(=O)N[C@@H](C)c7ccc(-c8scnc8C)cc7)C(C)C)on5)CC6)nc4c3F)c12 .
80 to 100%

Return reported Dmax; argument: CCc1cccc2cc(O)cc(-c3ncc4c(N5CC6CCC(C5)N6)nc(OCCN5CCC(CC6CN(c7cc([C@H](C(=O)N8C[C@H](O)C[C@H]8C(=O)N[C@@H](C)c8ccc(-c9ccnn9C)cc8)C(C)C)on7)C6)CC5)nc4c3F)c12 (single isomer, unassigned) [Compound 264]
80 to 100%

Record request: Dmax value, item CCc1cccc2cc(O)cc(-c3ncc4c(N5CC6CCC(C5)N6)nc(OCCN5CCC(O)(CC6CCN(c7cc([C@H](C(=O)N8C[C@H](O)C[C@H]8C(=O)N[C@@H](C)c8ccc(-c9scnc9C)cc8)C(C)C)on7)CC6)CC5)nc4c3F)c12
80 to 100%

Name the recorded Dmax for CCc1cccc2cc(O)cc(-c3ncc4c(N5CC6CCC(C5)N6)nc(OC[C@]56CCCN5[C@H](COC(=O)N5CCN(c7cc([C@@H](C(=O)N8C[C@H](O)C[C@H]8C(=O)N[C@@H](C)c8ccc(-c9scnc9C)cc8)C(C)C)on7)[C@H](C)C5)CC6)nc4c3F)c12 .
< 20%

###

Provide the recorded DC50 for the entries that follow.
# target_under_test: AsPC-1 HiBiT-KRASG12D (Homo sapiens, UniProt P01116, G12D)
# Construct: insert the HiBiT tag onto the N-terminus of one or more of the endogenous KRAS alleles; endogenous in cells; host or cells: AsPC-1 (ATCC CRL-1682), CRISPR-Cas9 knock-in clone, one tagged allele
# assay_text: HiBiT degradation assay (G12D), AsPC-1 HiBiT-KRASG12D cells
# Type: cell-based
# experimental_parameters: AsPC-1 HiBiT-KRASG12D cells, 24 hours treatment, HiBiT luminescence

Item under review: CCc1cccc2cc(O)cc(-c3ncc4c(N5CC6CCC(C5)N6)nc(OCCN5CCC(COC6(C(=O)N[C@H](C(=O)N7C[C@H](O)C[C@H]7C(=O)N[C@@H](C)c7ccc(-c8scnc8C)cc7)C(C)(C)C)CC6)CC5)nc4c3F)c12 . Reported DC50?
< 600 nM

Would you kindly share the measured DC50 for CCc1cccc2cccc(-c3ncc4c(N5CC6CCC(C5)N6)nc(OC[C@]56CCCN5[C@H](COc5cc([C@@H](C(=O)N7C[C@H](O)C[C@H]7C(=O)N[C@@H](C)c7ccc(-c8scnc8C)cc7)C(C)C)on5)CC6)nc4c3F)c12 ?
< 600 nM

What measured DC50 goes with C#Cc1c(F)ccc2cc(O)cc(-c3ncc4c(N5CC6CCC(C5)N6)nc(OCCN5CCC(CC6CN(c7cc([C@@H](C(=O)N8C[C@H](O)C[C@H]8C(=O)N[C@@H](C)c8ccc(-c9scnc9C)cc8)C(C)C)on7)C6)CC5)nc4c3F)c12 ?
1000 to 3000 nM

Find the recorded DC50 belonging to C#Cc1c(F)ccc2cc(O)cc(-c3ncc4c(N5CC6CCC(C5)N6)nc(OCCN5CC[C@H]6CN(c7cc([C@H](C(=O)N8C[C@H](O)C[C@H]8C(=O)N[C@@H](C)c8ccc(-c9scnc9C)cc8)C(C)C)on7)C[C@H]6C5)nc4c3F)c12 and report it.
< 600 nM

###

# target_under_test: AsPC-1 HiBiT-KRASG12D (Homo sapiens, UniProt P01116, G12D)
# Construct: insert the HiBiT tag onto the N-terminus of one or more of the endogenous KRAS alleles; endogenous in cells; host or cells: AsPC-1 (ATCC CRL-1682), CRISPR-Cas9 knock-in clone, one tagged allele
# assay_text: HiBiT degradation assay (G12D), AsPC-1 HiBiT-KRASG12D cells
# Assay type: cell-based
# experimental_parameters: AsPC-1 HiBiT-KRASG12D cells, 24 hours treatment, HiBiT luminescence
quantity_measured: DC50

Returns the measured DC50 for the input compound. Input: CCc1cccc2cc(O)cc(-c3ncc4c(N5CCCCCC5)nc(OC[C@]56CCCN5[C@H](COC(=O)N5CC(Oc7cc([C@@H](C(=O)N8C[C@H](O)C[C@H]8C(=O)N[C@@H](C)c8ccc(-c9scnc9C)cc8)C(C)C)on7)C5)CC6)nc4c3F)c12
600 to 1000 nM

I have this compound here, CCc1cccc2cc(O)cc(-c3ncc4c(N5CC6CCC(C5)N6)nc(OCCN5CC[C@H]6[C@H](CCN6c6cc([C@@H](C(=O)N7C[C@H](O)C[C@H]7C(=O)N[C@@H](C)c7ccc(-c8scnc8C)cc7)C(C)C)on6)C5)nc4c3F)c12 (relative stereo) , and I need its recorded DC50.
1000 to 3000 nM

Bench note: what DC50 did CCc1cccc2cccc(-c3ncc4c(N5CC6CCC(C5)N6C(=O)OC(C)(C)C)nc(OC[C@]56CCCN5[C@H](COC(=O)N5CCN(c7cc([C@H](C(=O)N8C[C@H](O)C[C@H]8C(=O)N[C@@H](C)c8ccc(-c9scnc9C)cc8)C(C)C)on7)[C@H](C)C5)CC6)nc4c3F)c12 show?
< 600 nM

Item C#Cc1cccc2cc(O)cc(-c3ncc4c(N5CC6CCC(C5)N6)nc(OCCN5CCC(COc6cc([C@H](C(=O)N7C[C@H](O)C[C@H]7C(=O)N[C@@H](C)c7ccc(-c8scnc8C)cc7)C(C)C)on6)CC5)nc4c3F)c12 has what recorded DC50?
< 600 nM

###

Provide the recorded DC50 for the entries that follow.
# target_under_test: AsPC-1 HiBiT-KRASG12D (Homo sapiens, UniProt P01116, G12D)
# Construct: insert the HiBiT tag onto the N-terminus of one or more of the endogenous KRAS alleles; endogenous in cells; host or cells: AsPC-1 (ATCC CRL-1682), CRISPR-Cas9 knock-in clone, one tagged allele
# assay_text: HiBiT degradation assay (G12D), AsPC-1 HiBiT-KRASG12D cells
# Assay type: cell-based
# experimental_parameters: AsPC-1 HiBiT-KRASG12D cells, 24 hours treatment, HiBiT luminescence

# lookup: DC50 of CCc1cccc2cc(O)cc(-c3ncc4c(N5CC6CCC(C5)N6)nc(OC[C@]56CCCN5[C@H](COC(=O)N5CCN(c7cc([C@H](C(=O)N8C[C@H](O)C[C@H]8C(=O)N[C@@H](C)c8ccc(C#N)cc8)C(C)C)on7)CC5)CC6)nc4c3F)c12
< 600 nM

Which DC50 is listed for CCc1cccc2cccc(-c3ncc4c(N5CC6CCC(C5)N6)nc(OC[C@]56CCCN5[C@H](COc5cc([C@H](C(=O)N7C[C@H](O)C[C@H]7C(=O)N[C@@H](C)c7ccc(-c8scnc8C)cc7)C(C)C)on5)CC6)nc4c3F)c12 ?
< 600 nM

Which value of DC50 has been reported for CCc1cccc2cc(O)cc(-c3ncc4c(N5CC6CCC(C5)N6)nc(OCCN5CCC(CC6(F)CCN(CC(=O)N[C@H](C(=O)N7C[C@H](O)C[C@H]7C(=O)N[C@@H](C)c7ccc(-c8scnc8C)cc7)C(C)(C)C)CC6)CC5)nc4c3F)c12 in the records?
< 600 nM

What does the data say about its DC50? Entry: CCc1cccc2cc(O)cc(-c3ncc4c(N5CCCCCC5)nc(OC[C@@]56CCCN5[C@H](COC(=O)N5CCN(c7cc([C@@H](C(=O)N8C[C@H](O)C[C@H]8C(=O)N[C@@H](C)c8ccc(-c9scnc9C)cc8)C(C)C)on7)CC5)CC6)nc4c3F)c12
< 600 nM

Endpoint output: DC50 of CCc1cccc2cc(O)cc(-c3ncc4c(N5CC6CCC(C6)C5)nc(OCCN5CCC(COCC(=O)N[C@H](C(=O)N6C[C@H](O)C[C@H]6C(=O)N[C@@H](C)c6ccc(-c7scnc7C)cc6)C(C)(C)C)CC5)nc4c3F)c12 . Value?
> 3000 nM

Bench note: what DC50 did C#Cc1c(F)ccc2cccc(-c3ncc4c(N5CC6CCC(C5)N6)nc(OC[C@]56CCCN5[C@H](COc5cc([C@@H](C(=O)N7C[C@H](O)C[C@H]7C(=O)N[C@@H](C)c7ccc(-c8scnc8C)cc7)C(C)C)on5)CC6)nc4c3F)c12 show?
< 600 nM

I am curious: what DC50 value has been reported for CCc1cccc2cc(O)cc(-c3ncc4c(N5CC6CCC(C5)N6)nc(OC[C@]56CCCN5[C@@H](COc5cc([C@H](C(=O)N7C[C@H](O)C[C@H]7C(=O)N[C@@H](C)c7ccc(-c8scnc8C)cc7)C(C)C)on5)CC6)nc4c3F)c12 ?
< 600 nM

Would you mind telling me what DC50 value was observed for CCc1cccc2cc(O)cc(-c3ncc4c(N5CC6CCC(C5)N6)nc(OC[C@@H]5CC[C@@H](COC(=O)N6CCN(c7cc([C@@H](C(=O)N8C[C@H](O)C[C@H]8C(=O)N[C@@H](C)c8ccc(-c9scnc9C)cc8)C(C)C)on7)[C@H](C)C6)N5C)nc4c3F)c12 ?
> 3000 nM
